I'd be grateful if you could share measured glycan array binding signal (z-score) for these entries.
biological target: Gal(b1-3)[GlcNAc(b1-6)]GalNAc; assay: glycan array binding signal (z-score within array); higher = stronger binding; details: glycan notation: IUPAC condensed, linker removed
The entries come from a sample that favours the strongest signals as a whole.
Answers are plain numbers.

{"columns": ["Binder", "Measured Result"],
 "data": [
  ["Epa7 (Candida glabrata), Q6DTM6_CANGB (protein) MGSSHHHHHHSSGLVPRGSHMKDDYSSFLSNNNLGWTDPTEFPLGCSPNVTTPKNGLSMELYSYDLRKNGSYPCWDAAYLDPNYPRTGYKSHRLLAKVDGVTGNINFYYHATKGCTPEIDHLPASYNYPKPLTMTNFTMLLYGYFKPKVTGYHTFTISADDLLFVNFGAGNAFDCCKRESSADDFGNYQAYAVWGSQTAKDDLTVHLDAGLYYPIRIFFNNREYDAELSLTLKTESDSNPVIDFSDYFYSFDDTKDGCPGLVSYDTS", 1.21]
]}

Then this binder:
Enquiry: Given the binder PNGase F (Flavobacterium meningosepticum) (protein) GIPAPADNTVNIKTFDKVKNAFGDGLSQSAEGTFTFPADVTAVKTIKMFIKNECPNKTCDEWDRYANVYVKNKTTGEWYEIGRFITPYWVGTEKLPRGLEIDVTDFKSLLSGNTELKIYTETWLAKGREYSVDFDIVYGTPDYKYSAVVPVVQYNKSSIDGVPYGKAHTLALKKNIQLPTNTEKAYLRTTISGWGHAKPYDAGSRGCAEWCFRTHTIAINNSNTFQHQLGALGCSANPINNQSPGNWTPDRAGWCPGMAVPTRIDVLNNSLIGSTFSYEYKFQNWTNNGTNGDAFYAISSFVIAKSNTPISAPVVTNLDPHHHHHH , what is its reported glycan array binding signal (z-score)?
Return: -0.166

Origin of values: the supplement of paper PMC8728848
